# system-under-test: 肝癌Huh-7细胞 (Huh-7癌细胞抗原; Huh-7细胞裂解蛋白)
# experiment: indirect ELISA; plate coated with 2 μg/mL Huh-7 cell antigen; purified ascites antibody in 2-fold dilutions
property-label: 抗体效价
# answer = number (no unit)

Return 抗体效价 for the following binder: 3E2单克隆抗体 (antibody, V domains shown) VH: EVKLVESGGGLVKPGGSLKLSCAASGFTFSNSAMRWVRQIPEKRLEWVAVIRAGGSLYFPDRVKSRFTISRDNARNICYLQMNSLRSDDTAMYYCARGREADGGYFDYWGQGTTLTVSS VL: DIVLTQSPASLAVSLGQRATISCAASERREYYGTSLASWYQQKPGQPPKLLIYARSNVEYGVPARFSGSGSGTDFSLNIHPVEEDDIAMYFCGSSMKRPLRFGAGTKLELK 2.56e+06

Determine its reported 抗体效价: 5D7单克隆抗体 (antibody, V domains shown) VH: EVKLVESGGGLVKPGGSLKLSCAASGFTFSDAAMRWVRQIPEKRLEWVASISSLISLYFPDSVESRFTISRDNARNICYLQMNSLRSDDTAMYYCARGAEASGGYFDQWGQGTTLTVSS VL: DIVLTQSPASLAVSLGQRATISCSASEHPEYYGTSLMAWYQQKPGQPPKLLIYASSNVETGVPARFSGSGSGTDFSLNIHPVEEDDIAMYFCQVSMKRPLDFGAGTKLELK 5.12e+06

Quick one: give measured 抗体效价 for 4D6单克隆抗体 (antibody, V domains shown) VH: EVKLVESGGGLVKPGGSLKLSCAASGFTFSQYRMGWVRQIPEKRLEWVAEISSASSLYFPDSVKSRFTISRDNARNICYLQMNSLRSDDTAMYYCARAREADNVYFDAWGQGTTLTVSS VL: DIVLTQSPASLAVSLGQRATISCSQSESGTYYGTSLAMWYQQKPGQPPKLLIYAASNVESGVPARFSGSGSGTDFSLNIHPVEEDDIAMYFCTASMKAPLRFGAGTKLELK 5.12e+06
